Source of measurements: paper PMC9966667

Test: PermeaPad 96-well plate permeability assay (absence of mucus)
Type: in vitro ADME
Conditions: not told, pH 7.4, PermeaPad without mucus; donor 100 or 500 µM in 10 mM PB pH 7.4, 5% DMSO; single timepoint 5 h; mean (±SD), n>=3; read-out: Papp ± SD • 10^6
Please provide measured Papp at 5 h for the entries that follow.
Just the number please, in ×10⁻⁶ cm/s, no unit attached.

Quick one: Papp at 5 h of `CN(C)C(=O)COC(=O)Cc1ccc(OC(=O)c2ccc(NC(=N)N)cc2)cc1` ? 2.16

Fill in: Papp at 5 h of `O=C(Nc1c(Cl)cncc1Cl)c1ccc(OC(F)F)c(OCC2CC2)c1` is ___ 0.01

Query (compound): `C=CC(=O)N1CCN(c2nc(=O)n(-c3c(C)ccnc3C(C)C)c3nc(-c4c(O)cccc4F)c(F)cc23)[C@@H](C)C1` ; field requested: Papp at 5 h 0.48

Can you share its Papp at 5 h? I mean this compound: CC(CCc1ccccc1)NCC(O)c1ccc(O)c(C(N)=O)c1 (stereo not shown) 1.81

// returns reported Papp at 5 h for input `CO[C@H]1/C=C/O[C@@]2(C)Oc3c(C)c(O)c4c(O)c(c(/C=N/N5CCN(C)CC5)c(O)c4c3C2=O)NC(=O)/C(C)=C\C=C\[C@H](C)[C@H](O)[C@@H](C)[C@@H](O)[C@@H](C)[C@H](OC(C)=O)[C@@H]1C` 0.7

Please give the measured Papp at 5 h for this compound: `COC(=O)N[C@H](C(=O)N[C@@H](Cc1ccccc1)[C@@H](O)CN(Cc1ccc(-c2ccccn2)cc1)NC(=O)[C@@H](NC(=O)OC)C(C)(C)C)C(C)(C)C` 0.19

Look up Papp at 5 h: `CC(=O)Nc1ccc(O)cc1` 4.55

Data request, read-out Papp at 5 h, for `C[C@H]1[C@H](NC(=O)/C(=N\OC(C)(C)C(=O)O)c2csc(N)n2)C(=O)N1S(=O)(=O)O` 0.18

What Papp at 5 h value was documented for this compound, CC(C)NCC(O)COc1cccc2ccccc12 (stereo not shown) ? 4.26

Item `CCS(=O)(=O)N1CC(CC#N)(n2cc(-c3ncnc4[nH]ccc34)cn2)C1` has what recorded Papp at 5 h? 3.06
